The reported numbers originate from patent US4845123A.

test system: 60 kd oncofetal protein; details: rat, in vivo
Recorded Treatment -I: total concentration of 60 kd factor induced by the carcinogen split into classes lower = under 4, middle = from 4 up to 5, upper = 5 and over

>  <molecule>
C=CCc1ccc2c(c1)OCO2 [Safrole, safrole]

>  <discrete.label>
upper

$$$$
>  <molecule>
COc1cc2c(c3oc(=O)c4c(c13)CCC4=O)[C@@H]1C=CO[C@@H]1O2 [Aflatoxin B1, aflatoxin B1]

>  <discrete.label>
middle

$$$$
>  <molecule>
CNNC [1,2-Dimethylhydrazine, 1,2-dimethylhydrazine]

>  <discrete.label>
upper

$$$$
>  <molecule>
COc1cc2c(c3oc(=O)c4c(c13)CCOC4=O)[C@@H]1CCO[C@@H]1O2 [Aflatoxin G2, aflatoxin G2]

>  <discrete.label>
lower

$$$$
>  <molecule>
Nc1ccc2ccccc2c1 [2-Naphthylamine, 2-naphthylamine]

>  <discrete.label>
lower

$$$$
>  <molecule>
c1ccc2c(c1)cc1ccc3cccc4ccc2c1c34 [Benzo[a]pyrene]

>  <discrete.label>
upper

$$$$
>  <molecule>
CCN(N=O)C(N)=O [N--Nitrosoethylurea, N-nitroso-N-ethylurea]

>  <discrete.label>
middle

$$$$
>  <molecule>
CN(C)N=O [N--Nitrosodimethylamine, N-nitroso-N,N-dimethylamine]

>  <discrete.label>
lower

$$$$
>  <molecule>
CN(N=O)C(N)=O [N--Nitrosomethylurea, N-nitroso-N-methylurea]

>  <discrete.label>
middle

$$$$
>  <molecule>
CCCCN(CCCC)N=O [N--Nitrosodibutylamine, N-nitroso-N,N-dibutylamine]

>  <discrete.label>
upper

$$$$
>  <molecule>
Cc1ccc2cc3c(ccc4ccccc43)c3c2c1CC3 [3-Methylcholanthrene, 3-methyl-1,2-dihydrobenz[j]aceanthrylene]

>  <discrete.label>
upper

$$$$
>  <molecule>
CCN(CC)N=O [N--Nitrosodiethylamine, N-nitroso-N, N-diethylamine]

>  <discrete.label>
middle

$$$$
